Let's look at some compounds and their measured TGI.
Tested on: NCI-H460 lung
testName: NCI tumour cell line growth inhibition, 48 h

Past entries and their recorded results:
>>> measuredresult("O=C(/C=C/c1ccc(Cl)cc1)c1nc2ccccc2[nH]1")
"> 100 µM"
>>> measuredresult("CC(/C=C1\\CCC(CN(C)C)C1=O)c1cccc(Br)c1 (stereo not drawn)")
"> 70.2 µM"

Now consider a different compound.
Form: compound = CSc1c(S(C)=O)c2ccccc2n1C (stereo not drawn) ; TGI = > 100 µM

###

Tested on: HOP-92 NSCLC
testName: NCI tumour cell line growth inhibition, 48 h
readoutLabel: TGI

Past entries and their recorded results:
>>> measuredresult("CC1=C(C(=O)Nc2ccccc2C)C(c2ccccc2O)C(C(=O)Nc2ccccc2C)=C(C)N1")
"> 100 µM"
>>> measuredresult("CN(CCO)c1nc(=O)c2c(n1C1OC(CO)C(O)C(O)C1O)CCCC2 (stereo not drawn)")
"> 100 µM"
>>> measuredresult("CC(=O)OC1CC2C(=O)CC1(C)C2(C)C (stereo not drawn)")
"> 100 µM"
>>> measuredresult("CC(O)(c1ccc(OCCC[N+](C)(C)C)cc1)C(C)(O)c1ccc(OCCC[N+](C)(C)C)cc1 (stereo not drawn)")
"> 100 µM"
>>> measuredresult("CC[C@@]1(O)C(=O)OCc2c1cc1n(c2=O)Cc2cc3cccc(N)c3nc2-1")
"> 100 µM"

Now consider a different compound.
Form: compound = Cc1ccc2nc(-c3nccn3C)cc(C(=O)NC(C)CN(C)C)c2c1 (stereo not drawn) ; TGI = > 100 µM
